Target: UniProt:P00381
Conditions: Lacticaseibacillus casei
Description: Inhibitory activity against dihydrofolate reductase (DHFR) from Lactobacillus casei (expressed as log 1/Kiapp)
Define the label as met when Log 1/Ki app is strictly less than 6 and as not met in all remaining cases.

// below: answered molecules
{"Given smiles": "CCCCCCOc1ccc(Cc2cnc(N)nc2N)cc1", "System tested": "UniProt:P00381", "Answer label": "met"}
{"Given smiles": "Nc1ncc(Cc2ccc(Cl)cc2)c(N)n1", "System tested": "UniProt:P00381", "Answer label": "not met"}
{"Given smiles": "Nc1ncc(Cc2cccc(I)c2)c(N)n1", "System tested": "UniProt:P00381", "Answer label": "not met"}
{"Given smiles": "Nc1ncc(Cc2ccc(Br)cc2)c(N)n1", "System tested": "UniProt:P00381", "Answer label": "not met"}
{"Given smiles": "Nc1ncc(Cc2cccc(Br)c2)c(N)n1", "System tested": "UniProt:P00381", "Answer label": "not met"}

Moving on to another molecule below.
Q) Given the entry Nc1ncc(Cc2ccccc2)c(N)n1 , would its reported Log 1/Ki app be below 6?
A) met

====

Target: Dihydrofolate reductase (Escherichia coli)
Can you tell me Log 1/Ki app for the items I'm about to list?

Worked cases, answers included:
{"Given smiles": "Nc1ncc(Cc2ccc(OC(F)(F)F)cc2)c(N)n1", "System tested": "Dihydrofolate reductase (Escherichia coli)", "Log 1/Ki app": 6.57}
{"Given smiles": "CS(=O)(=O)Oc1cccc(Cc2cnc(N)nc2N)c1", "System tested": "Dihydrofolate reductase (Escherichia coli)", "Log 1/Ki app": 6.92}
{"Given smiles": "CC(=O)Nc1ccc(Cc2cnc(N)nc2N)cc1[N+](=O)[O-]", "System tested": "Dihydrofolate reductase (Escherichia coli)", "Log 1/Ki app": 6.97}

Parameters: items (list). Returns: Log 1/Ki app for each item.
1. Nc1ncc(Cc2ccc([N+](=O)[O-])cc2)c(N)n1
2. COc1ccc(Cc2cnc(N)nc2N)cc1C(F)(F)F

A)
1. 6.2
2. 7.69

====

Molecular target: Dihydrofolate reductase (Lactobacillus casei)
Settings: Lacticaseibacillus casei
Metric name: Log 1/Ki app

Example compounds with recorded Log 1/Ki app:
{"Given smiles": "COCc1cccc(Cc2cnc(N)nc2N)c1", "Measurement": 5.64}
{"Given smiles": "CC(=O)Nc1ccc(Cc2cnc(N)nc2N)cc1[N+](=O)[O-]", "Measurement": 6}
{"Given smiles": "CS(=O)(=O)Oc1cccc(Cc2cnc(N)nc2N)c1", "Measurement": 5.92}
{"Given smiles": "COCCOc1c(OC)cc(Cc2cnc(N)nc2N)cc1OC", "Measurement": 6.26}
{"Given smiles": "CC(=O)Nc1ccc(Cc2cnc(N)nc2N)cc1", "Measurement": 6.05}

Q) For the compound Nc1ncc(Cc2ccc(O)c(O)c2)c(N)n1 , give its reported Log 1/Ki app.
A) 5.84

====

Target: Dihydrofolate reductase (Lactobacillus casei)
Details: Lacticaseibacillus casei
Returns one of condition met or condition not met; condition met when Log 1/Ki app is >= 6.

{"Given smiles": "Nc1ncc(Cc2cc(O)cc(O)c2)c(N)n1", "Answer label": "condition not met"}

Q) Could you tell me if the measured Log 1/Ki app of COc1ccc(Cc2cnc(N)nc2N)cc1C(F)(F)F reaches 6 or more?
A) condition met

Q) Please tell me: is the compound CCCCOCc1cccc(Cc2cnc(N)nc2N)c1 at or over 6 in terms of Log 1/Ki app?
A) condition not met

Q) Quick check: does COCCOc1ccc(Cc2cnc(N)nc2N)cc1OCCOC have Log 1/Ki app greater than or equal to 6?
A) condition met

Q) Determine whether this compound has Log 1/Ki app no lower than 6: COc1ccc(Cc2cnc(N)nc2N)cc1OC
A) condition met

Q) Check this compound for Log 1/Ki app at or above 6: CCCCCCCOc1ccc(Cc2cnc(N)nc2N)cc1
A) condition not met

====

Target: Dihydrofolate reductase (Lactobacillus casei) (UniProt P00381)
Sequence (P00381 whole entry): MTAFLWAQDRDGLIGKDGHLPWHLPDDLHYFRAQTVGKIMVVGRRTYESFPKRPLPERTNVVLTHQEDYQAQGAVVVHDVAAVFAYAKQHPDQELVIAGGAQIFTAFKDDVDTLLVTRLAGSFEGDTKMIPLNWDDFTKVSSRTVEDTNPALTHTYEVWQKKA
Details: Lacticaseibacillus casei
Metric name: Log 1/Ki app
Give bare numbers.

Previously resolved entries follow.
{"Given smiles": "Nc1ncc(Cc2cccc(Cl)c2)c(N)n1", "System tested": "Dihydrofolate reductase (Lactobacillus casei) (UniProt P00381)", "Log 1/Ki app": 5.9}
{"Given smiles": "COCCOc1ccc(Cc2cnc(N)nc2N)cc1", "System tested": "Dihydrofolate reductase (Lactobacillus casei) (UniProt P00381)", "Log 1/Ki app": 6.05}

Hi! Can you tell me Log 1/Ki app for each of these compounds?
1. Cc1ccc(Cc2cnc(N)nc2N)cc1
2. Nc1ncc(Cc2ccc([N+](=O)[O-])cc2)c(N)n1
3. Nc1ncc(Cc2cccc(O)c2)c(N)n1

A)
[5.83, 6, 5.82]

Dear reader, for each entry below, please note its Log 1/Ki app.
1. CN(C)c1ccc(Cc2cnc(N)nc2N)cc1
2. Cc1cccc(Cc2cnc(N)nc2N)c1
3. Nc1ncc(Cc2cccc(F)c2)c(N)n1
4. CCCCOc1ccc(Cc2cnc(N)nc2N)cc1
5. NC(=O)COc1cccc(Cc2cnc(N)nc2N)c1
6. Nc1ncc(Cc2ccc(F)cc2)c(N)n1

A)
[6.17, 5.78, 5.38, 6.37, 5.96, 5.67]

Hi there! I need Log 1/Ki app for each item below, if you can.
1. COCCOc1cccc(Cc2cnc(N)nc2N)c1
2. Nc1ncc(Cc2ccc(OC(F)(F)F)cc2)c(N)n1
3. Nc1ncc(Cc2cc(CO)cc(CO)c2)c(N)n1

A)
1. 6.12
2. 6.3
3. 5.73

====

Provide the recorded Log 1/Ki app for the entries that follow.
Target: Dihydrofolate reductase (Lactobacillus casei) (UniProt P00381)
Conditions: Lacticaseibacillus casei
Numbers only.

// worked examples, Log 1/Ki app included
{"Given smiles": "Nc1ncc(Cc2cccc(C(F)(F)F)c2)c(N)n1", "System tested": "Dihydrofolate reductase (Lactobacillus casei) (UniProt P00381)", "Log 1/Ki app": 6.16}
{"Given smiles": "Nc1ncc(Cc2cccc(CO)c2)c(N)n1", "System tested": "Dihydrofolate reductase (Lactobacillus casei) (UniProt P00381)", "Log 1/Ki app": 5.67}

Q) Give Log 1/Ki app for the following compound: Nc1ccc(Cc2cnc(N)nc2N)cc1
A) 5.47
